Please respond with reported Emax at 10 µM for every item in the list.
# Target: GABAA receptor α4β3δ (Homo sapiens, UniProt P28472+P48169)
# Construct: expressed in transfected cells; host or cells: CHO cells (transient, lipofection)
# Sequence (P48169 36-554): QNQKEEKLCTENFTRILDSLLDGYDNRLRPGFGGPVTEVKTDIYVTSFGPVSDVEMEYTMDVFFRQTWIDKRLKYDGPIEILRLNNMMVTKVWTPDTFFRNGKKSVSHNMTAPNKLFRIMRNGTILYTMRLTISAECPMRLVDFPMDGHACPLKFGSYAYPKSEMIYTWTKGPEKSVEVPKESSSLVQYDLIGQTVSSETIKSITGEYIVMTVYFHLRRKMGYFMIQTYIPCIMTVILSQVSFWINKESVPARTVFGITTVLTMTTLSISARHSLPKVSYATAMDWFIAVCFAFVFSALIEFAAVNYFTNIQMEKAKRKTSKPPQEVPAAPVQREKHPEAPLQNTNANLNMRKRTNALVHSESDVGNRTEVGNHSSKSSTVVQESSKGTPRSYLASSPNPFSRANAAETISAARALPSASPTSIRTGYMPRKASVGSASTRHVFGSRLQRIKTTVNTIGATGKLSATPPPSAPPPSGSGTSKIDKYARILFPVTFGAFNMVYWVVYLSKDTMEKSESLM
# Sequence (P28472 26-473): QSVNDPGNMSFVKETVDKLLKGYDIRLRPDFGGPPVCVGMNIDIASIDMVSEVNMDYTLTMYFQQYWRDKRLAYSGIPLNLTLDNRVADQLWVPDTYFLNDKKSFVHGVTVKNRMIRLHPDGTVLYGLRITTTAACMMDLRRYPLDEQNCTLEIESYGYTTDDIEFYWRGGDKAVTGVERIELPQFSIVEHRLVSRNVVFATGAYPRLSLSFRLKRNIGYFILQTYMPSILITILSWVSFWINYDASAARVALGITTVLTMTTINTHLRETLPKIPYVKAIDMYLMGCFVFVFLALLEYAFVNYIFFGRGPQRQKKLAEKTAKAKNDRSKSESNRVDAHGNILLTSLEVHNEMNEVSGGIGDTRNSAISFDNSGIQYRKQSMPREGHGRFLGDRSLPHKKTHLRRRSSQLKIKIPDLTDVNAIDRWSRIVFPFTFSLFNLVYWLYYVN
# Sequence (O14764 25-452 partner): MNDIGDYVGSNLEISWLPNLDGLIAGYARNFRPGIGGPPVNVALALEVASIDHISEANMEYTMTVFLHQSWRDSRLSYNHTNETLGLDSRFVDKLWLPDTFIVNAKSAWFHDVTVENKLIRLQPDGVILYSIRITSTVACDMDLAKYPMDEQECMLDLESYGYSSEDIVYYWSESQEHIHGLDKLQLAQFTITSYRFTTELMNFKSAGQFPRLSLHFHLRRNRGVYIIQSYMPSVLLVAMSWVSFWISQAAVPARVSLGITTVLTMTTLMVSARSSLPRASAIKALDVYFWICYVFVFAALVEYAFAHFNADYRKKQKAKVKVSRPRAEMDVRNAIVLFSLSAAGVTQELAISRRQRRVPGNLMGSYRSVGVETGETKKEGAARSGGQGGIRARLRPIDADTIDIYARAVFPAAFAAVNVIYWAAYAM
# Procedure Text: Patch clamp electrophysiology, manual patch in CHO cells
# Format: cell-based
# Condition Info: 10 μM test article, GABA EC20 2 μM, read-out: GABA (α4β3δ) Manual patch in CHO, % efficacy at 10 μM

Query: Emax at 10 µM; subject: C[C@@]1(O)CC[C@@H]2[C@H]3CC[C@]4(C)[C@@H](C(=O)Cn5cc(C#N)cn5)CC[C@H]4[C@@H]3C[C@@H](F)[C@H]2C1
> 500%

Look up Emax at 10 µM for this compound: C[C@@]1(O)CC[C@H]2[C@H](CC[C@@H]3[C@@H]2CC[C@]2(C)[C@@H](C(=O)Cn4cc(Br)cn4)CC[C@@H]32)C1
> 500%

# lookup: Emax at 10 µM of C[C@@]1(O)CC[C@H]2[C@H](CC[C@@H]3[C@@H]2CC[C@]2(C)[C@@H](C(=O)Cn4cc(S(C)(=O)=O)cn4)CC[C@@H]32)C1
100 to 500%

Attribution: patent US12201640B2
